B1: tRNA (parent)
chain: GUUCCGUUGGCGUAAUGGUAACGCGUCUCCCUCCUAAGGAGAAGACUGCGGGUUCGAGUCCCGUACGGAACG

- Variants of: B1
- assayComment: yeast fitness relative to wild type (ratio to wild type); higher = fitter; tRNA-Arg(CCU), competitive growth, 37 C, YPD
This sample holds only a part of the variants without activity.
assayReadout: yeast fitness
// return a plain number; no unit text

yeast fitness for C34U C61U is 1

Per the records, this variant ( U35C G51A ) has yeast fitness equal to 0.731

Documented yeast fitness of C30A C46U C55U : 0.573

Record U26A G58C . Reported yeast fitness: 0.98

The reported yeast fitness of the variant U26G C46G C61U was 0.824

Sample C11G C30U A37C C46U ; yeast fitness observed: 0.664

Entry G25A U26A — recorded yeast fitness = 0.839

In plain terms, A20G G67A A69C has a documented yeast fitness of 0.563

For reference, reported yeast fitness for C4G stands at 1.01

For this variant ( C30U G58C G63C ), measured yeast fitness is 0.57

For record C4G C24U A42C C46A U54A the listed yeast fitness is 0.623

Field yeast fitness (entry C11G C55G ) reads 0.594

yeast fitness in this record for G23C C30G G39C : 0.501

The variant U26A C29A C31G A65C showed yeast fitness equal to 0.566

Lab book: yeast fitness of G17A C31G noted as 0.85

For U26G C27A the variant record lists yeast fitness as 0.647

The measurements presented in this section are drawn from the RNAGym collection of RNA variant scans (doi:10.1126/science.aae0568).
